Reported IC50 values for a set of compounds
# TEST SYSTEM: recombinant human 11beta-HSD1 (Homo sapiens)
# Construct: Full length recombinant human 11β-HSD1 cDNAs and the cDNA encoding human 11β-HSD2 were expressed stably in HEK 293 EBNA cells; microsome fraction used
# Sequence (P28845 whole entry): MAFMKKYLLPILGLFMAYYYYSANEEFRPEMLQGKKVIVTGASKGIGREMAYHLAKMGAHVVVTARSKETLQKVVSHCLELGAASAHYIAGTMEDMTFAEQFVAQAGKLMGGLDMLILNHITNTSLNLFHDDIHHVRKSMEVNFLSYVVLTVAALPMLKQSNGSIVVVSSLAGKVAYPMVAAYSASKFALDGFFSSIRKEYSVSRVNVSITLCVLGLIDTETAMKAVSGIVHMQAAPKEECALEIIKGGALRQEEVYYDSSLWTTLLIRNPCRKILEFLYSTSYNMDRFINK
# PROCEDURE SUMMARY: 11β-HSD1 SPA enzyme assay (in vitro inhibition of recombinant human 11beta-HSD1)
# PROTOCOL CONDITIONS: human 11β-HSD1 microsomes from HEK 293 EBNA cells, 3H-cortisone 40 nM, 4 hrs room temperature
# Description: The in vitro inhibition of recombinant human 11beta-HSD1 was determined as follows. The supernatant was further centrifuged at 105,000×g for […]. The 105,000×g pellet was resuspended in buffer H and centrifuged at 105,000×g for 60 min. […] The protein concentration was measured by the BioRad method using BSA standard. […] 11β-HSD1 was assayed by Scintillation Proximity assay in a 384-well Perkin Elmer white plate. […] The plate was read in a TopCount® (1 min/well). […]
Report the value in nM with no unit label.

CC(C)(O)c1cccn2c(C3(C(=O)O)CC3)nnc12 [Example 80] | 7700
CN(C)C(=O)c1ccc(C2(c3nnc4c(C(C)(C)O)cccn34)CC2)cc1 [Example 86] | 35
CC(C)(O)c1cccc2c(C3(c4ccc(Cl)cc4)CC3)nnn12 [Example 6] | 20

I have this compound here, CC(C)(O)c1cccn2c(C3(c4nc(-c5ccc(F)cc5)cs4)CC3)nnc12 [Example 109] , and I need its recorded IC50. 0.6

I have this compound here, CC(C)(O)c1cccn2c(C3(c4ccc(Cl)cc4)CC3)nnc12 [Example 1] , and I need its recorded IC50. 2.3

I have this compound here, CC(C)(O)c1cccn2c(C3(c4ccc(Cl)cc4F)CC3)nnc12 [Example 54] , and I need its recorded IC50. 0.7

I have this compound here, CC(C)(O)c1cccn2c(C3(c4nnn(Cc5ccccc5)n4)CC3)nnc12 [Example 112] , and I need its recorded IC50. 2820

I have this compound here, Cc1ccc(S(=O)(=O)C2(c3nnc4c(C(C)(C)O)cccn34)CC2)cc1C [Example 90] , and I need its recorded IC50. 1380

I have this compound here, CC(C)(O)c1cccn2c(C3(c4ccc(Cl)c(Cc5nnn[nH]5)c4)CC3)nnc12 [Example 42] , and I need its recorded IC50. 72

I have this compound here, CC(C)(O)c1cccn2c(C3(c4nc(-c5ccccc5)c[nH]4)CC3)nnc12 [Example 104] , and I need its recorded IC50. 191

I have this compound here, CC(C)(O)c1cccn2c(C3(c4nnn(Cc5ccc(F)cc5)n4)CC3)nnc12 [Example 110] , and I need its recorded IC50. 104
